- Tested on: CAL-120
- experiment notes: normalised viability (% of control), CellTiter-Blue; higher = more viable cells (about 100 = DMSO control)
- recorded conditions: 10000 nM; incubation time: 72 h
normalised viability values by entry
Reply with just the number (in %).

Reference set (4 entries):
>  <compound>
Cc1ccc(-c2cc(C(F)(F)F)nn2-c2ccc(S(N)(=O)=O)cc2)cc1 [Celecoxib]

>  <measured value>
81.9

$$$$
>  <compound>
CCc1cncnc1N1CCN(Cc2nc3ccc(C(F)(F)F)cc3[nH]2)CC1

>  <measured value>
132

$$$$
>  <compound>
COc1cc([C@@H]2c3cc4c(cc3[C@@H](O[C@@H]3O[C@@H]5CO[C@@H](c6cccs6)O[C@H]5[C@H](O)[C@H]3O)[C@H]3COC(=O)[C@H]23)OCO4)cc(OC)c1O [Teniposide]

>  <measured value>
10.3

$$$$
>  <compound>
CC[C@H](Nc1ncnc2[nH]cnc12)c1nc2cccc(F)c2c(=O)n1-c1ccccc1 [CAL-101]

>  <measured value>
77.8

$$$$

Now for a further compound.
Request: Provide measured normalised viability value, entry: CCCCC(=O)OCC(=O)[C@]1(O)Cc2c(O)c3c(c(O)c2[C@@H](O[C@H]2C[C@H](NC(=O)C(F)(F)F)[C@H](O)[C@H](C)O2)C1)C(=O)c1c(OC)cccc1C3=O [Valrubicin]
Result: 15.6

---

- System: MFM-223
- experiment notes: normalised viability (% of control), CellTiter-Blue; higher = more viable cells (about 100 = DMSO control)
- recorded conditions: 10000 nM; incubation time: 72 h
observable: normalised viability (%)
Reply with just the number (in %).

Reference set (3 entries):
>  <smiles code>
CCCS(=O)(=O)Nc1ccc(F)c(C(=O)c2c[nH]c3ncc(-c4ccc(Cl)cc4)cc23)c1F

>  <reading unit>
%

>  <normalised viability>
85.6

$$$$
>  <smiles code>
CCCCC(=O)OCC(=O)[C@]1(O)Cc2c(O)c3c(c(O)c2[C@@H](O[C@H]2C[C@H](NC(=O)C(F)(F)F)[C@H](O)[C@H](C)O2)C1)C(=O)c1c(OC)cccc1C3=O

>  <reading unit>
%

>  <normalised viability>
24.2

$$$$
>  <smiles code>
NCCCNCCSP(=O)(O)O

>  <reading unit>
%

>  <normalised viability>
96.4

$$$$

Now for a further compound.
Request: Give reported normalised viability for Cc1ccc(-c2cc(C(F)(F)F)nn2-c2ccc(S(N)(=O)=O)cc2)cc1 (MFM-223)
Result: 86.3

---

- Test system: HCC1937
- recorded conditions: 72 h
observable: EC50, CellTiter-Blue viability (nM)
Reply with just the number (in nM).

>  <compound>
Cc1cnc(NC(=O)Nc2cc(Br)c(C)cc2OC[C@@H]2CNCCO2)cn1

>  <reading unit>
nM

>  <EC50, CellTiter-Blue viability>
121

$$$$
>  <compound>
O=C(O)C(=O)O.[NH-][C@@H]1CCCC[C@H]1[NH-].[Pt+2] [Oxaliplatin]

>  <reading unit>
nM

>  <EC50, CellTiter-Blue viability>
4810

$$$$
>  <compound>
CCCS(=O)(=O)Nc1ccc(F)c(C(=O)c2c[nH]c3ncc(-c4ccc(Cl)cc4)cc23)c1F [Vemurafenib]

>  <reading unit>
nM

>  <EC50, CellTiter-Blue viability>
7820

$$$$
>  <compound>
CCCCC(=O)OCC(=O)[C@]1(O)Cc2c(O)c3c(c(O)c2[C@@H](O[C@H]2C[C@H](NC(=O)C(F)(F)F)[C@H](O)[C@H](C)O2)C1)C(=O)c1c(OC)cccc1C3=O [Valrubicin]

>  <reading unit>
nM

>  <EC50, CellTiter-Blue viability>
211

$$$$

Request: Provide measured EC50, CellTiter-Blue viability value, entry: Nc1nc(F)nc2c1ncn2[C@@H]1O[C@H](CO)[C@@H](O)[C@@H]1O [Fludarabine]
Result: 1320
